molecular target: KDR (human, UniProt P35968 20-1356); assay: cell-based or functional assay
Sequence (P35968 20-1356): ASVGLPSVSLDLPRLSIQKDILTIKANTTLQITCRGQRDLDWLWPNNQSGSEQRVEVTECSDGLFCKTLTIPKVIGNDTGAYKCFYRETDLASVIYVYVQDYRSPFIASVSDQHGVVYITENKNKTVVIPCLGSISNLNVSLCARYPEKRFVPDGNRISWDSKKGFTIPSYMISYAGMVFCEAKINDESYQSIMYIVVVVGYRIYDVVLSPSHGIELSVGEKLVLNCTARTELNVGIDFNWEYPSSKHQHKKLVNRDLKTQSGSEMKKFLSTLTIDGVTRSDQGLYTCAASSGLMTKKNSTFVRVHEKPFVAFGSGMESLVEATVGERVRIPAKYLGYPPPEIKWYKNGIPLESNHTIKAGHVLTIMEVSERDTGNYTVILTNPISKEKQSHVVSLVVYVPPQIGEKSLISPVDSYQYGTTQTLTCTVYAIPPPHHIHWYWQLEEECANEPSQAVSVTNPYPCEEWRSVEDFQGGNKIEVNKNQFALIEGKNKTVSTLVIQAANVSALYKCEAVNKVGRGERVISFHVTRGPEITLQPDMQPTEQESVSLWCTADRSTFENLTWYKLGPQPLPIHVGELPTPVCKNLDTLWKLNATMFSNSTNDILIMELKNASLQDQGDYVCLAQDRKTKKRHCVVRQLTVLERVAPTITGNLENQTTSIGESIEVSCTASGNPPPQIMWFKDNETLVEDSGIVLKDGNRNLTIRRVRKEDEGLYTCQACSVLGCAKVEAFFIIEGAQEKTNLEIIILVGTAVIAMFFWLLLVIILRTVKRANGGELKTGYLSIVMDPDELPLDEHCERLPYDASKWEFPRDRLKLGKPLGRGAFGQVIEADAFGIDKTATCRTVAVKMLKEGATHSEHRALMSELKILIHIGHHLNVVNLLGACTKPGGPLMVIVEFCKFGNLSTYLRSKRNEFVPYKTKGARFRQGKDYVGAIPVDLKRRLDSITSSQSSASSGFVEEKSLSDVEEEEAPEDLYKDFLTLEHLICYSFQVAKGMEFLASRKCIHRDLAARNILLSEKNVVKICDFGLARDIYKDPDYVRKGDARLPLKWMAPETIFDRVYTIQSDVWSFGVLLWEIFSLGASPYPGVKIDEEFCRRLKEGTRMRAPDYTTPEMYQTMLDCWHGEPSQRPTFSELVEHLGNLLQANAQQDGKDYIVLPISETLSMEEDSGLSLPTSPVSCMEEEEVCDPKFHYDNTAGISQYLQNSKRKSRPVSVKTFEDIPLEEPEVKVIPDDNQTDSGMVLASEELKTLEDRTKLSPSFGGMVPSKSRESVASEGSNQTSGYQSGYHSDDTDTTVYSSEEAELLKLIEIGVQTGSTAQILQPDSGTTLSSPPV
Examples of binders with documented Activity at 133 nM (% Inhibition), 24-hour Pre-incubation at 37° C., N = 1 follow.
Kindly answer with a numeric value in %, unit omitted.

See these solved cases before continuing.
binder="32G7 (antibody, V domains shown) VH: EVQLVESGGGLVKPGGSLRLSCAASGFTISSYSMNWVRQAPGKGLEWVSFISSRSNYIYYADSVKGRFTISRDNAKNSLYLQMNSLRAEDTAVYYCSKDDWFEELWGQGTLVTVSS VL: DIQMTQSPSSLSASVGDRVTITCRASQDIRNDLGWYQQKPGKAPKRLIYAASSLQSGVPSRFSGSGSGTEFTLTISSLQPEDFATYYCLQHNSFPWTFGQGTKVEIK" test_value=36
binder="21H9 (antibody, V domains shown) VH: QVPLVESGGGVVQPGRSLRLSCAASGFTFSSYGMHWVRQAPGKGLEWVAVIWYDGSNKYYADSVQGRFTISRDNSKNTLYLQMNSLRAEDTAVYYCARGVTMVRGLIIARYYYGLDVWGQGTTVTVSS VL: DIVMTQTPLSSPVTFGQPASISCRSSQSLVHSDGNTYLSWLQQRPGQPPRLLIYKISNRFFGVPDRFSGSGAGTDFTLKISRVEAEDVGLYYCMQSTQFPLTFGGGTKVEIK" test_value=-3

Read the next record carefully.
Query :: What value of Activity at 133 nM (% Inhibition), 24-hour Pre-incubation at 37° C., N = 1 has been recorded for this entry: 22B8 (antibody, V domains shown) VH: QLQLQESGPGLVKPSETLSLTCTVSGGSISSRYYYWGWVRQPPGKGLEWIGTIYYSGHTYYNPSLKTRVTISVDTSKNQFSLKLISVTAADTAVYYCATQQLVLYYFDFWGQGTLVTVSS VL: EIVLTQSPGTLSLSPGERAALSCRASQSISSSYLAWYQQRPGQAPRLLIYGASSRATGIPDRFNGSGSGTDFTLTISRLEPEDFAVYYCQQFGSSITFGQGTRLEIK
Result :: 82

Source: patent US20100260765A1
